Entry source: patent US4156777A

Field: Blood Glucose Concentration. Provide a value for each of the compounds that follow.
Experiment: Diabetogenic activity (blood glucose concentration after intravenous administration)
Type: in vivo, male Wister rats
Details: 60 mg/kg i.v., 10 hr after treatment
Please state the figure in mg/dL; there is no need to write the unit.

Query :: I am curious: what Blood Glucose Concentration value has been reported for CO[C@H]1O[C@H](CO)[C@@H](O)[C@H](O)[C@H]1NC(=O)N(CCCl)N=O ?
Result :: 67.5

Query :: I am curious: what Blood Glucose Concentration value has been reported for CO[C@H]1O[C@H](CNC(=O)N(CCCl)N=O)[C@@H](O)[C@H](O)[C@H]1O ?
Result :: 67.7

Query :: I am curious: what Blood Glucose Concentration value has been reported for O=NN(CCCl)C(=O)N[C@H]1C(O)O[C@H](CO)[C@@H](O)[C@@H]1O (some centres unmarked) ?
Result :: 115.7

Query :: I am curious: what Blood Glucose Concentration value has been reported for O=NN(CCCl)C(=O)NC[C@H]1OC(O)[C@H](O)[C@@H](O)[C@@H]1O (some centres unmarked) ?
Result :: 79.2

Query :: I am curious: what Blood Glucose Concentration value has been reported for O=NN(CCCl)C(=O)N[C@@H]1O[C@H](CO)[C@@H](O)[C@H](O)[C@H]1O ?
Result :: 105.9

---

Test: Diabetogenic activity (blood glucose concentration after intravenous administration)
Format: in vivo, male Wister rats
Details: 60 mg/kg i.v., 24 hr after treatment
// label = Fulfilled if Blood Glucose Concentration is not less than 80 mg/dL, otherwise Not fulfilled

Query :: Is reported Blood Glucose Concentration greater than or equal to 80 mg/dL here: CO[C@H]1O[C@H](CO)[C@@H](O)[C@H](O)[C@H]1NC(=O)N(CCCl)N=O [Example 2MCαG]
Result :: Not fulfilled

Query :: Is reported Blood Glucose Concentration greater than or equal to 80 mg/dL here: O=NN(CCCl)C(=O)N[C@@H]1O[C@H](CO)[C@@H](O)[C@H](O)[C@H]1O [GANU]
Result :: Fulfilled

Query :: Is reported Blood Glucose Concentration greater than or equal to 80 mg/dL here: O=NN(CCCl)C(=O)N[C@H]1C(O)O[C@H](CO)[C@@H](O)[C@@H]1O (some centres unmarked) [DCNU]
Result :: Fulfilled

Query :: Is reported Blood Glucose Concentration greater than or equal to 80 mg/dL here: CO[C@H]1O[C@H](CNC(=O)N(CCCl)N=O)[C@@H](O)[C@H](O)[C@H]1O [Example 6MCαG]
Result :: Not fulfilled

---

Assay: Diabetogenic activity (blood glucose concentration after intravenous administration)
Format: in vivo, male Wister rats
Details: 40 mg/kg i.v., 4 hr after treatment
measured.quantity: Blood Glucose Concentration (mg/dL)
Please state the figure in mg/dL; there is no need to write the unit.

Query :: I am curious: what Blood Glucose Concentration value has been reported for CO[C@H]1O[C@H](CO)[C@@H](O)[C@H](O)[C@H]1NC(=O)N(CCCl)N=O ?
Result :: 70.6

Query :: I am curious: what Blood Glucose Concentration value has been reported for CO[C@H]1O[C@H](CNC(=O)N(CCCl)N=O)[C@@H](O)[C@H](O)[C@H]1O ?
Result :: 79.3

Query :: I am curious: what Blood Glucose Concentration value has been reported for O=NN(CCCl)C(=O)N[C@H]1C(O)O[C@H](CO)[C@@H](O)[C@@H]1O (some centres unmarked) ?
Result :: 74.6

Query :: I am curious: what Blood Glucose Concentration value has been reported for O=NN(CCCl)C(=O)N[C@@H]1O[C@H](CO)[C@@H](O)[C@H](O)[C@H]1O ?
Result :: 71.3

Query :: I am curious: what Blood Glucose Concentration value has been reported for O=NN(CCCl)C(=O)NC[C@H]1OC(O)[C@H](O)[C@@H](O)[C@@H]1O (some centres unmarked) ?
Result :: 67.7

---

Assay: Diabetogenic activity (blood glucose concentration after intravenous administration)
Format: in vivo, male Wister rats
Settings: 40 mg/kg i.v., 0 hr after treatment
measured.quantity: Blood Glucose Concentration (mg/dL)
Please state the figure in mg/dL; there is no need to write the unit.

Query :: I am curious: what Blood Glucose Concentration value has been reported for O=NN(CCCl)C(=O)N[C@H]1C(O)O[C@H](CO)[C@@H](O)[C@@H]1O (some centres unmarked) [DCNU] ?
Result :: 67.5

Query :: I am curious: what Blood Glucose Concentration value has been reported for CO[C@H]1O[C@H](CO)[C@@H](O)[C@H](O)[C@H]1NC(=O)N(CCCl)N=O [Example 2MCαG] ?
Result :: 71.0

Query :: I am curious: what Blood Glucose Concentration value has been reported for O=NN(CCCl)C(=O)N[C@@H]1O[C@H](CO)[C@@H](O)[C@H](O)[C@H]1O [GANU] ?
Result :: 67.8

Query :: I am curious: what Blood Glucose Concentration value has been reported for O=NN(CCCl)C(=O)NC[C@H]1OC(O)[C@H](O)[C@@H](O)[C@@H]1O (some centres unmarked) [Example 6DCNU] ?
Result :: 70.4

Query :: I am curious: what Blood Glucose Concentration value has been reported for CO[C@H]1O[C@H](CNC(=O)N(CCCl)N=O)[C@@H](O)[C@H](O)[C@H]1O [Example 6MCαG] ?
Result :: 72.0

---

Field: Blood Glucose Concentration. Provide a value for each of the molecules that follow.
Experiment: Diabetogenic activity (blood glucose concentration after intravenous administration)
Type: in vivo, male Wister rats
Settings: 40 mg/kg i.v., 24 hr after treatment
Please state the figure in mg/dL; there is no need to write the unit.

Query :: I am curious: what Blood Glucose Concentration value has been reported for CO[C@H]1O[C@H](CNC(=O)N(CCCl)N=O)[C@@H](O)[C@H](O)[C@H]1O ?
Result :: 73.1

Query :: I am curious: what Blood Glucose Concentration value has been reported for O=NN(CCCl)C(=O)N[C@@H]1O[C@H](CO)[C@@H](O)[C@H](O)[C@H]1O ?
Result :: 120.3

Query :: I am curious: what Blood Glucose Concentration value has been reported for O=NN(CCCl)C(=O)NC[C@H]1OC(O)[C@H](O)[C@@H](O)[C@@H]1O (some centres unmarked) ?
Result :: 69.9

Query :: I am curious: what Blood Glucose Concentration value has been reported for CO[C@H]1O[C@H](CO)[C@@H](O)[C@H](O)[C@H]1NC(=O)N(CCCl)N=O ?
Result :: 72.7

Query :: I am curious: what Blood Glucose Concentration value has been reported for O=NN(CCCl)C(=O)N[C@H]1C(O)O[C@H](CO)[C@@H](O)[C@@H]1O (some centres unmarked) ?
Result :: 142.2

---

Field: ILS. Provide a value for each of the compounds that follow.
System: leukemia L-1210
Experiment: Antitumor activity against leukemia L-1210 implanted in BDF1 mice (ILS, 60 days survivors)
Type: in vivo
Settings: 12.5 mg/kg/day, p.o. D1~5

Query :: I am curious: what ILS value has been reported for CO[C@H]1O[C@H](CNC(=O)N(CCCl)N=O)[C@@H](O)[C@H](O)[C@H]1O ?
Result :: > 700%

Query :: I am curious: what ILS value has been reported for CO[C@H]1O[C@H](CO)[C@@H](O)[C@H](O)[C@H]1NC(=O)N(CCCl)N=O ?
Result :: > 211%

Query :: I am curious: what ILS value has been reported for O=NN(CCCl)C(=O)N[C@H]1C(O)O[C@H](CO)[C@@H](O)[C@@H]1O (stereo partly shown) ?
Result :: 13%

Query :: I am curious: what ILS value has been reported for O=NN(CCCl)C(=O)NC[C@H]1OC(O)[C@H](O)[C@@H](O)[C@@H]1O (stereo partly shown) ?
Result :: > 123%

---

Test: Diabetogenic activity (blood glucose concentration after intravenous administration)
Assay type: in vivo, male Wister rats
Details: 40 mg/kg i.v., 2 hr after treatment
Protocol: 40-96 mg/kg of the test compounds were administered intravenously to starved male Wister rats weighing 240-260 g each, and the blood glucose concentrations of the test animals were estimated by the glucose exidase method [L. L. Saloman et al: Anal. Chem., 31 (1959), 453], in which test the compounds were dissolved in physiological saline solution just before administration. […]
Field: Blood Glucose Concentration. Provide a value for each of the compounds that follow.
Please state the figure in mg/dL; there is no need to write the unit.

Query :: I am curious: what Blood Glucose Concentration value has been reported for O=NN(CCCl)C(=O)N[C@@H]1O[C@H](CO)[C@@H](O)[C@H](O)[C@H]1O ?
Result :: 70.4

Query :: I am curious: what Blood Glucose Concentration value has been reported for CO[C@H]1O[C@H](CO)[C@@H](O)[C@H](O)[C@H]1NC(=O)N(CCCl)N=O ?
Result :: 73.5

Query :: I am curious: what Blood Glucose Concentration value has been reported for O=NN(CCCl)C(=O)N[C@H]1C(O)O[C@H](CO)[C@@H](O)[C@@H]1O (some centres unmarked) ?
Result :: 87.2

Query :: I am curious: what Blood Glucose Concentration value has been reported for CO[C@H]1O[C@H](CNC(=O)N(CCCl)N=O)[C@@H](O)[C@H](O)[C@H]1O ?
Result :: 75.9

Query :: I am curious: what Blood Glucose Concentration value has been reported for O=NN(CCCl)C(=O)NC[C@H]1OC(O)[C@H](O)[C@@H](O)[C@@H]1O (some centres unmarked) ?
Result :: 73.3
